Source: patent US5250517A

// values below are reported pIC50
# experimentalSystem: human renin (Homo sapiens, UniProt P00797)
# Sequence (P00797 67-406): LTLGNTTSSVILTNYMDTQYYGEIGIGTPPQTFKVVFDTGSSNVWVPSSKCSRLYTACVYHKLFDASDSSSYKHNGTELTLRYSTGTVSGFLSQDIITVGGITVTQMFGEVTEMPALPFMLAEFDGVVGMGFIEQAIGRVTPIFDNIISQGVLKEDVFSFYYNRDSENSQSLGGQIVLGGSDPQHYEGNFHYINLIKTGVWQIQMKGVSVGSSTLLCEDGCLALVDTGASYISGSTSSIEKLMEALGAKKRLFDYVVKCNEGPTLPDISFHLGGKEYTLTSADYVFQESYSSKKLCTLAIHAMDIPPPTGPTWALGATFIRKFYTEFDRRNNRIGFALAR
pIC50 here: minus log base 10 of the concentration, concentration in moles per litre.

CC[C@@H](C[C@H](O)[C@H](CC1CCCCC1)NC(=O)[C@H](Cc1c[nH]cn1)NC(=O)C(CC(=O)N1CCOCC1)Cc1cccc2ccccc12)C(C)C (stereo partly shown) :: 8.39
C=C[C@@H](C[C@H](O)[C@H](CC1CCCCC1)NC(=O)[C@H](Cc1c[nH]cn1)NC(=O)C(CC(=O)C1CCCC1)Cc1ccccc1)C(C)C (mixture of isomers) :: 7.34
CC[C@@H](C[C@H](O)[C@H](CC1CCCCC1)NC(=O)[C@H](Cc1c[nH]cn1)NC(=O)C(CC(=O)C1CCCC1)Cc1ccccc1)C(C)C (mixture of isomers) :: 7.17

Q: human renin (Homo sapiens, UniProt P00797) / pIC50 / C=C[C@@H](C[C@H](O)[C@H](CC1CCCCC1)NC(=O)[C@H](Cc1c[nH]cn1)NC(=O)[C@H](Cc1ccccc1)NC(=O)OC(C)(C)C)C(C)C : value?
A: 8.12

Q: Cool, now CC[C@@H](C[C@H](O)[C@H](CC1CCCCC1)NC(=O)[C@H](Cc1c[nH]cn1)NC(=O)[C@@H](CC(=O)[C@@H]1CCCN1C(=O)OC(C)(C)C)Cc1ccccc1)C(C)C
A: 8.40

Q: Follow-up entry: CC[C@@H](C[C@H](O)[C@H](CC1CCCCC1)NC(=O)[C@H](Cc1c[nH]cn1)NC(=O)[C@@H](CC(=O)NC(C)(CO)CO)Cc1ccccc1)C(C)C
A: 7.82

Q: And CC[C@@H](C[C@H](O)[C@H](CC1CCCCC1)NC(=O)[C@H](Cc1c[nH]cn1)NC(=O)[C@H](Cc1ccccc1)NC(=O)[C@H]1CCCN1C(=O)OC(C)(C)C)C(C)C ?
A: 8.46

Q: Check C=C[C@@H](C[C@H](O)[C@H](CC1CCCCC1)NC(=O)[C@H](Cc1c[nH]cn1)NC(=O)CC(C)C)C(C)C too.
A: 8.05

Q: // same read-out, input: C=C[C@@H](C[C@H](O)[C@H](CC1CCCCC1)NC(=O)[C@H](Cc1c[nH]cn1)NC(=O)[C@H](Cc1ccccc1)NC(=O)[C@H]1CCCN1C(=O)OC(C)(C)C)C(C)C
A: 9.52

Q: For C=C[C@@H](C[C@H](O)[C@H](CC1CCCCC1)NC(=O)[C@H](Cc1c[nH]cn1)NC(=O)[C@@H](CC(=O)C(C)(C)C)Cc1ccccc1)C(C)C then?
A: 8.15
